The compounds listed here are annotated with their melting point.

Some compounds with recorded melting point:
Cc1cc(C(=O)Nc2cccc(Sc3ccc4nc(NC(=O)C5CC5)cn4n3)c2)n(C)n1 : 251 °C
CCc1cccc(N(C(=O)CCC(=O)O)c2cc(C(C)(C)C)c(O)c(C(C)(C)C)c2)c1 : 150 to 152 °C
COc1cc(C(=O)N(C(C)C)C2CCCCC2)ccc1Cn1cccc2nc(C)nc1-2 : 218 to 221 °C
CCN(CC)CCSC1=C(C#N)C(c2cccnc2)(c2ccc(OC)c(OC)c2)C(=O)N1 (centres undefined) : 133 to 135 °C
CCOc1cc(C)ccc1C1CCN(CCCCNC(=O)c2ccc(NC(=O)c3ccc(Cl)cc3)cc2)CC1 : 254 °C
C=CC[C@@H](C(=O)N[C@H](C(=O)N[C@H](C)c1ccccc1)C(C)(C)C)[C@H](OCC)C(=O)OC : 131 to 134 °C

The compound listed as C[C@@H](Cn1ncc2ccc3c(c21)C[C@@H](OCC(N)=O)CO3)N=[N+]=[N-] shows melting point equal to 94 to 97 °C

# melting point of Cc1nc(-c2ccc(S(C)(=O)=O)cc2)c(-c2ccc(F)cc2)s1 = 134 to 135 °C

melting point recorded for this compound, COc1ccc(N)cc1OCCCN1CCC(c2noc3cc(F)ccc23)CC1 , is 94 to 95 °C

Memo: C1=c2ccccc2=NCO1 , reported melting point: 247 to 249 °C

Memo: COC(=O)c1ccc(CSc2nc3ccccc3[nH]2)cc1 , reported melting point: 229 to 231 °C

Given item CCCCCC[C@H](C)Oc1ccc(-c2ccc(OC(=O)c3ccccc3)cc2)cc1 , the value recorded as its melting point is 84 °C

The compound identified as CCNC(=O)NCC1CC1c1cccn2nc(C)cc12 (centres undefined) registered its melting point at 108 to 110 °C

So for CN1C(=O)C(C(=O)Nc2ccc(F)cc2)Sc2ccccc21 (centres undefined) , the logged melting point turned out to be 158 to 160 °C

The compound CCOC(=O)C1=C(C=O)NC(CF)=C(C(=O)OCC)C1c1cccc([N+](=O)[O-])c1 (centres undefined) showed melting point equal to 88 to 90 °C

Record CCCCc1cc(-c2ccc(S(N)(=O)=O)cc2)n(-c2ccc(OC)cc2)c1 , field melting point: 115 to 117 °C
